pEC50: recorded values
# target-entity: 229E Mpro (Human coronavirus 229E)
# Construct: 229E Mpro
# protocol: 229E Mpro assay (Table 3)
# Type: biochemical, HCoV 229E
# condition-description: read-out: 229E Mpro EC50
pEC50: −log10 of the molar value.
measurement-label: pEC50

* Cc1ccn([C@H](CC2CC2)C(=O)N[C@H](C#N)C[C@@H]2CCNC2=O)c(=O)c1NC(=O)OC(C)(C)C (single isomer, unassigned) [591 (Isomer 1)] | < 4.52
* COc1cccc2[nH]c(C(=O)N3CC4(CCCCC4)CC3C(=O)N[C@H](C#N)C[C@@H]3CCCNC3=O)cc12 (single isomer, unassigned) [603a (Isomer 2)] | < 4.52
* Cc1ccn([C@H](CC2CC2)C(=O)N[C@H](C#N)C[C@@H]2CCNC2=O)c(=O)c1NCC(F)(F)F (single isomer, unassigned) [451 (Isomer 1)] | < 4.52
* CC(C)(C)[C@H](NC(=O)C(F)(F)F)C(=O)N1C[Si](C)(C)C[C@H]1C(=O)N[C@H](C#N)C[C@@H]1CC2(CC2)NC1=O | > 5.70
* COc1cccc2[nH]c(C(=O)N3C[C@H](C4CCCCC4)C[C@H]3C(=O)N[C@H](C#N)C[C@@H]3CCNC3=O)cc12 | 5.00 to 5.70
* COc1cc(Cl)c2[nH]c(C(=O)N3CC4(CCCCC4)CC3C(=O)N[C@H](C#N)C[C@@H]3CCNC3=O)cc2c1 (single isomer, unassigned) [896 (Isomer 2)] | < 4.52

* * *

# target-entity: UniProtKB P0DTD1
IC50: recorded values
measurement-label: IC50

* CC1(C)C[C@@H](C[C@@H](C#N)NC(=O)[C@H](CC2CC2)NC(=O)[C@@H](NC(=O)C(F)(F)F)C(C)(C)C)C(=O)N1 | < 2000 nM
* CC(C)(C)[C@H](NC(=O)C(F)(F)F)C(=O)N1CC2(CCC2)CC1C(=O)N[C@H](C#N)C[C@@H]1CC2(CC2)NC1=O (some centres unmarked) [Compound 3039b] | < 2000 nM
* COc1cc(Cl)c2[nH]c(C(=O)N3CC4(CCCCC4)CC3C(=O)N[C@H](C#N)C[C@@H]3CCNC3=O)cc2c1 (single isomer, unassigned) [896 (Isomer 2)] | > 30000 nM
* CC(C)(C)[C@H](NC(=O)C(F)(F)F)C(=O)N1C[C@H]2[C@@H]([C@H]1C(=O)N[C@H](C#N)C[C@@H]1CCCNC1=O)C2(C)C | < 2000 nM
* CN(C(=O)[C@@H](NC(=O)C(F)(F)F)C(C)(C)C)[C@@H](CC1CC1)C(=O)N[C@H](C#N)C[C@@H]1CCCNC1=O | < 2000 nM
* CC1(C)C[C@@H](C[C@@H](C#N)NC(=O)C2CC3(CCC3)CN2C(=O)[C@@H](NC(=O)C(F)(F)F)C(C)(C)C)C(=O)N1 (single isomer, unassigned) [3071a (Isomer 2)] | > 30000 nM
* CC(C)(C)[C@H](NC(=O)C(F)(F)F)C(=O)N1C[C@H]2[C@@H]([C@H]1C(=O)N[C@H](C#N)C[C@@H]1CC3(CC3)NC1=O)C2(C)C | < 2000 nM
* CC1(C)C[C@@H](C[C@@H](C#N)NC(=O)[C@@H]2[C@@H]3[C@H](CN2C(=O)[C@@H](NC(=O)C(F)(F)F)C(C)(C)C)C3(C)C)C(=O)N1 (single isomer, unassigned) [3075 (Isomer 2)] | < 2000 nM
* COc1cc(Cl)c2[nH]c(C(=O)N3CC4(CCCCC4)CC3C(=O)N[C@H](C#N)C[C@@H]3CCNC3=O)cc2c1 (single isomer, unassigned) [896 (Isomer 1)] | < 2000 nM
* CC(C)(C)[C@H](NC(=O)C(F)(F)F)C(=O)N1CC2(CCCCC2)C[C@H]1C(=O)N[C@H](C#N)C[C@@H]1CC2(CC2)NC1=O | < 2000 nM
* CC1(C)C[C@@H](C[C@@H](C#N)NC(=O)[C@@H]2CC3(CCCCC3)CN2C(=O)[C@@H](NC(=O)C(F)(F)F)C(C)(C)C)C(=O)N1 | < 2000 nM

* * *

# target-entity: 229E Mpro (Human coronavirus 229E)
# Construct: 229E Mpro
# protocol: 229E Mpro assay (Table 3)
# Format: biochemical, HCoV 229E
# condition-description: 229E Mpro EC50
EC50: recorded values
measurement-label: EC50

- CN(C(=O)[C@@H](NC(=O)C(F)(F)F)C(C)(C)C)[C@@H](CC1CC1)C(=O)N[C@H](C#N)C[C@@H]1CCCNC1=O [Compound 3131]: 10 to 30 µM
- CC(C)(C)[C@H](NC(=O)C(F)(F)F)C(=O)N1CC2(CCCCC2)C[C@H]1C(=O)N[C@H](C#N)C[C@@H]1CC2(CC2)NC1=O [Compound 3041]: < 2 µM
- CC(C)(C)[C@H](NC(=O)C(F)(F)F)C(=O)N1CC2(CCC2)CC1C(=O)N[C@H](C#N)C[C@@H]1CC2(CC2)NC1=O (stereo partly shown) [Compound 3039b]: < 2 µM
- Cc1ccn(C(CC2CC2)C(=O)N[C@H](C#N)C[C@@H]2CCNC2=O)c(=O)c1NCC(F)(F)F (single isomer, unassigned) [451 (Isomer 2)]: 10 to 30 µM

* * *

# target-entity: 229E Mpro (Human coronavirus 229E)
# Construct: 229E Mpro
# protocol: 229E Mpro assay (Table 3)
# Assay type: biochemical, HCoV 229E
# condition-description: read-out: 229E Mpro EC50
EC50: recorded values
measurement-label: EC50

- N#C[C@H](C[C@@H]1CCNC1=O)NC(=O)[C@@H]1CCc2ccc(NCC(=O)O)c(=O)n21: > 30 µM
- COc1cccc2[nH]c(C(=O)N3CC4(CCC4)CC3C(=O)N[C@H](C#N)C[C@@H]3CCNC3=O)cc12 (single isomer, unassigned) [399A (Isomer 2)]: 10 to 30 µM
- COc1cccc2[nH]c(C(=O)N3C[C@H]4CC[C@H]4[C@@H]3C(=O)N[C@H](C#N)C[C@@H]3CCNC3=O)cc12 (single isomer, unassigned) [547 (Isomer 2)]: < 2 µM

* * *

# target-entity: 229E Mpro (Human coronavirus 229E, UniProt P0C6X1)
# Construct: 229E Mpro
# Sequence (P0C6X1 2966-3267): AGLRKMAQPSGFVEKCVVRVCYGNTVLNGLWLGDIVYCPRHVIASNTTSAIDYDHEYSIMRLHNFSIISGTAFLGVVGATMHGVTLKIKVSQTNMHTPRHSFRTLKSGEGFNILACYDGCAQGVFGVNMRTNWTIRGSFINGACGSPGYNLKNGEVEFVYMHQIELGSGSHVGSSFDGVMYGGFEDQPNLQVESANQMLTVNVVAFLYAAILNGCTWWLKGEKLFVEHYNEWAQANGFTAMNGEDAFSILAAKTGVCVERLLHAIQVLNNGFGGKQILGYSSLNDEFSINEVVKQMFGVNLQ
# protocol: 229E Mpro assay (Table 3)
# Type: biochemical, HCoV 229E
# condition-description: 229E Mpro EC50
EC50: recorded values
measurement-label: EC50

- CC1(C)C[C@@H](C[C@@H](C#N)NC(=O)[C@@H]2[C@@H]3[C@H](CN2C(=O)[C@@H](NC(=O)C(F)(F)F)C(C)(C)C)C3(C)C)C(=O)N1 (single isomer, unassigned) [3075 (Isomer 2)]: 10 to 30 µM
- CC1(C)C[C@@H](C[C@@H](C#N)NC(=O)C2CC3(CCC3)CN2C(=O)[C@@H](NC(=O)C(F)(F)F)C(C)(C)C)C(=O)N1 (single isomer, unassigned) [3071a (Isomer 2)]: > 30 µM
- CC(C)(C)[C@H](NC(=O)C(F)(F)F)C(=O)N[C@@H](CC1CC1(F)F)C(=O)N[C@H](C#N)C[C@@H]1CC2(CC2)NC1=O (some centres unmarked) [Compound 3045]: < 2 µM
- CC1(C)C[C@@H](C[C@@H](C#N)NC(=O)[C@H](CC2CC2)NC(=O)[C@@H](NC(=O)C(F)(F)F)C(C)(C)C)C(=O)N1 [Compound 3065]: > 30 µM
- CC(C)(C)C[C@H](NC(=O)[C@@H](NC(=O)C(F)(F)F)C(C)(C)C)C(=O)N[C@H](C#N)C[C@@H]1CC2(CC2)NC1=O [Compound 3037]: < 2 µM
- CC(C)(C)C[C@H](NC(=O)[C@@H](NC(=O)C(F)(F)F)C(C)(C)C)C(=O)N[C@H](C#N)C[C@@H]1CCCNC1=O [Compound 3129]: < 2 µM
- CC(C)(C)[C@H](NC(=O)C(F)(F)F)C(=O)N1CC2(CCC2)CC1C(=O)N[C@H](C#N)C[C@@H]1CC2(CC2)NC1=O (single isomer, unassigned) [3039a (Isomer 1)]: 2 to 10 µM
- CC1(C)C[C@@H](C[C@@H](C#N)NC(=O)[C@@H]2CC3(CCCCC3)CN2C(=O)[C@@H](NC(=O)C(F)(F)F)C(C)(C)C)C(=O)N1 [Compound 3073]: 2 to 10 µM
- CC(C)(C)[C@H](NC(=O)C(F)(F)F)C(=O)N1C[C@H]2[C@@H]([C@H]1C(=O)N[C@H](C#N)C[C@@H]1CC3(CC3)NC1=O)C2(C)C [Compound 3043]: < 2 µM
- COc1cccc2[nH]c(C(=O)N[C@@H](CC3CC3)C(=O)N[C@H](C#N)C[C@@H]3CCCNC3=O)cc12 (single isomer, unassigned) [491A (Isomer 1)]: > 30 µM
- CC1(C)C[C@@H](C[C@@H](C#N)NC(=O)[C@@H]2[C@@H]3[C@H](CN2C(=O)[C@@H](NC(=O)C(F)(F)F)C(C)(C)C)C3(C)C)C(=O)N1 (single isomer, unassigned) [3075 (Isomer 1)]: > 30 µM
